# Tested on: luciferase
# procedure text: Luciferase expression after local (intramuscular or subcutaneous) administration of mRNA
# Assay type: in vivo
# condition context: subcutaneous, mRNA 0.01 mpk, 6 hours
Starred links: 1 amine or outer side, 2 acyl side, 3 side chain; linkers in the order of their positions; H or OH if unused. Non-standard residues stand in square brackets, D forms with d. Residues, ends and D or L forms follow the SMILES beside them. *: point of attachment. Gly(N-(3-decanoyloxypropyl)) = CCCCCCCCCC(=O)OCCCNCC(=O)O; N(3-lauroyloxypropyl)Gly = CCCCCCCCCCCC(=O)OCCCNCC(=O)O; N(2-decanoyloxyethyl)Gly = CCCCCCCCCC(=O)OCCNCC(=O)O; Gly(N-(CH2)3O-octanoyl) = CCCCCCCC(=O)OCCCNCC(=O)O; N(3-imidazol-1-ylpropyl)Gly = O=C(O)CNCCCn1ccnc1; Gly(N-3-morpholinopropyl) = O=C(O)CNCCCN1CCOCC1; N(2-ethylhexyl)Gly = CCCCC(CC)CNCC(=O)O; X1 = CCCCC(CC)CSSCCN(CC(=O)[*:2])[*:1]; N(CH(CH2OH)2)Gly = O=C(O)CNC(CO)CO; N(octyl)Gly = CCCCCCCCNCC(=O)O; NHexGly = CCCCCCNCC(=O)O; For = O=C*
metric: SC Flux (p/s)
Kindly answer with a numeric value in p/s, unit omitted.

Prompt: Supply measured SC Flux of CCCCCCCCCC(=O)OCCCN(CC(=O)N(CC(N)=O)CC(CC)CCCC)C(=O)CN(CCCCCCCC)C(=O)CN(CC(CC)CCCC)C(=O)CN(CCCOC(=O)CCCCCCCCC)C(=O)CN(CCCCCCCC)C(=O)CN(C=O)CCCN1CCOCC1 (stereo not drawn) [Compound 110] (For-[Gly(N-3-morpholinopropyl)][N(octyl)Gly][Gly(N-(3-decanoyloxypropyl))][N(2-ethylhexyl)Gly][N(octyl)Gly][Gly(N-(3-decanoyloxypropyl))][N(2-ethylhexyl)Gly]-NH2) in your reply.
Response: 2.34E+08

Prompt: Supply measured SC Flux of CCCCCCCCCC(=O)OCCCN(CC(=O)N(CC(N)=O)CC(CC)CCCC)C(=O)CN(CCCCCCCC)C(=O)CN(CC(CC)CCCC)C(=O)CN(CCCOC(=O)CCCCCCCCC)C(=O)CN(CCCCCCCC)C(=O)CNCCCn1ccnc1 (stereo not drawn) [Compound 111] (H-[N(3-imidazol-1-ylpropyl)Gly][N(octyl)Gly][Gly(N-(3-decanoyloxypropyl))][N(2-ethylhexyl)Gly][N(octyl)Gly][Gly(N-(3-decanoyloxypropyl))][N(2-ethylhexyl)Gly]-NH2) in your reply.
Response: 6.25E+07

Prompt: Let me know recorded SC Flux for CCCCCCCCCCCC(=O)OCCCN(CC(=O)N(CC(=O)N(CCCCCC)CC(=O)N(CCCOC(=O)CCCCCCCCCCC)CC(=O)N(CC(=O)N(CCCCCC)CC(N)=O)CC(CC)CCCC)CC(CC)CCCC)C(=O)CN(C=O)CCCN1CCOCC1 (stereo not drawn) [Compound 70] (For-[Gly(N-3-morpholinopropyl)][N(3-lauroyloxypropyl)Gly][N(2-ethylhexyl)Gly][NHexGly][N(3-lauroyloxypropyl)Gly][N(2-ethylhexyl)Gly][NHexGly]-NH2) , thanks.
Response: 2.02E+08

Prompt: State its SC Flux for this compound: CCCCCCCCCC(=O)OCCCN(CC(=O)N(CCSSCC(CC)CCCC)CC(N)=O)C(=O)CN(CCCCCCCC)C(=O)CN(CCSSCC(CC)CCCC)C(=O)CN(CCCOC(=O)CCCCCCCCC)C(=O)CN(CCCCCCCC)C(=O)CNC(CO)CO (stereo not drawn) [Compound 129] (H-[N(CH(CH2OH)2)Gly][N(octyl)Gly][Gly(N-(3-decanoyloxypropyl))][X1][N(octyl)Gly][Gly(N-(3-decanoyloxypropyl))][X1]-NH2)
Response: 3.41E+08

Prompt: Give the reported SC Flux for this compound. CCCCCCCCCC(=O)OCCCN(CC(N)=O)C(=O)CN(CC(CC)CCCC)C(=O)CN(CCCOC(=O)CCCCCCCCC)C(=O)CN(CCCOC(=O)CCCCCCCCC)C(=O)CN(CC(CC)CCCC)C(=O)CN(CCCOC(=O)CCCCCCCCC)C(=O)CNC(CO)CO (stereo not drawn) [Compound 53] (H-[N(CH(CH2OH)2)Gly][Gly(N-(3-decanoyloxypropyl))][N(2-ethylhexyl)Gly][Gly(N-(3-decanoyloxypropyl))][Gly(N-(3-decanoyloxypropyl))][N(2-ethylhexyl)Gly][Gly(N-(3-decanoyloxypropyl))]-NH2)
Response: 2.78E+08

Prompt: Give me measured SC Flux, please, for this compound: CCCCCCCCCC(=O)OCCN(CC(N)=O)C(=O)CN(CC(CC)CCCC)C(=O)CN(CCOC(=O)CCCCCCCCC)C(=O)CN(CCOC(=O)CCCCCCCCC)C(=O)CN(CC(CC)CCCC)C(=O)CN(CCOC(=O)CCCCCCCCC)C(=O)CNC(CO)CO (stereo not drawn) [Compound 56] (H-[N(CH(CH2OH)2)Gly][N(2-decanoyloxyethyl)Gly][N(2-ethylhexyl)Gly][N(2-decanoyloxyethyl)Gly][N(2-decanoyloxyethyl)Gly][N(2-ethylhexyl)Gly][N(2-decanoyloxyethyl)Gly]-NH2)
Response: 8.24E+07

Prompt: Please report SC Flux for the following compound: CCCCCCCCCC(=O)OCCN(CC(=O)N(CCOC(=O)CCCCCCCCC)CC(=O)N(CC(=O)N(CCOC(=O)CCCCCCCCC)CC(=O)N(CCOC(=O)CCCCCCCCC)CC(=O)N(CC(N)=O)CC(CC)CCCC)CC(CC)CCCC)C(=O)CNC(CO)CO (stereo not drawn) [Compound 16] (H-[N(CH(CH2OH)2)Gly][N(2-decanoyloxyethyl)Gly][N(2-decanoyloxyethyl)Gly][N(2-ethylhexyl)Gly][N(2-decanoyloxyethyl)Gly][N(2-decanoyloxyethyl)Gly][N(2-ethylhexyl)Gly]-NH2)
Response: 5.62E+08

Prompt: Output SC Flux of CCCCCCCCCCCC(=O)OCCCN(CC(=O)N(CCCOC(=O)CCCCCCCCCCC)CC(=O)N(CCCCCC)CC(=O)N(CCCOC(=O)CCCCCCCCCCC)CC(=O)N(CCCOC(=O)CCCCCCCCCCC)CC(=O)N(CCCCCC)CC(N)=O)C(=O)CNCCCn1ccnc1 [Compound 73] (H-[N(3-imidazol-1-ylpropyl)Gly][N(3-lauroyloxypropyl)Gly][N(3-lauroyloxypropyl)Gly][NHexGly][N(3-lauroyloxypropyl)Gly][N(3-lauroyloxypropyl)Gly][NHexGly]-NH2)
Response: 6.38E+07

Prompt: Tell me its SC Flux given CCCCCCCCN(C=O)CC(=O)N(CCCOC(=O)CCCCCCC)CC(=O)N(CCSSCC(CC)CCCC)CC(=O)N(CCCN1CCOCC1)CC(=O)N(CCSSCC(CC)CCCC)CC(=O)N(CCCOC(=O)CCCCCCC)CC(=O)N(CCCCCCCC)CC(N)=O (stereo not drawn) [Compound 132] (For-[N(octyl)Gly][Gly(N-(CH2)3O-octanoyl)][X1][Gly(N-3-morpholinopropyl)][X1][Gly(N-(CH2)3O-octanoyl)][N(octyl)Gly]-NH2) as the entry.
Response: 6.94E+08

meta.source: patent US20260373248A1
